Values from the supplement of paper PMC10567573

B1: TMEM192 (parent)
chain: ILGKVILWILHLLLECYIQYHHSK

- Variants of: B1
- test_name: protein stability index of a GFP-peptide fusion (GPS, HEK-293T) (PSI 1-6); higher = more stable;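 further: lentivirally expressed fusions sorted by FACS into six bins by GFP to DsRed ratio, PSI derived from sequencing read proportions per bin multiplied by bin number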
- test_context: c terminus: a fixed tail appended
Threshold rule: protein stability index greater than or equal to 3 is TRUE; below that, FALSE.

ILGKVILWILHLFLECYIQYHHSK [L13F]: FALSE
ILGKVILWILHLLLECYIQYRHSK [H21R]: FALSE
ILGKVILWILHLLLECEIQYHHSK [Y17E]: TRUE
ILGKVILWILHLLLECYIQYHHYK [S23Y]: FALSE
ILGKYILWILHLLLECYIQYHHSK [V5Y]: TRUE
IDGKVILWILHLLLECYIQYHHSK [L2D]: FALSE
ILGKVILWIIHLLLECYIQYHHSK [L10I]: TRUE
ILLKVILWILHLLLECYIQYHHSK [G3L]: FALSE
ILGKVILWILHTLLECYIQYHHSK [L12T]: TRUE
ILGKVILWILHGLLECYIQYHHSK [L12G]: TRUE
ILGKVILWILHLLTECYIQYHHSK [L14T]: TRUE
ILGEVILWILHLLLECYIQYHHSK [K4E]: FALSE
